test system: 786-0 renal; assay: NCI-60 one-dose screen, 48 h; details: 10 µM unless noted
Compounds without any hit were thinned out: in the full panel of roughly 83,000, 20% have a hit. Activity calls are given as the source filed them. The calls were made as follows: active = growth percent below 10; inactive = the rest.
Can you answer with just one of these options? active, inactive

Which result was noted for this compound in the test: O=C(NCCN1CCCCC1)n1cc(-c2ccncc2)c(-c2ccc(Cl)c(O)c2)n1
inactive

Which result was noted for this compound in the test: CN1C2CCC1/C(=C\c1ccc(F)cc1)C(=O)/C2=C/c1ccc(F)cc1
inactive

Which result was noted for this compound in the test: COc1ccc(C(=O)OC2C(OC3C(O)COC(O[C@H]4C[C@H]5[C@@H]6CC=C7C[C@@H](O)CC[C@]7(C)[C@H]6CC[C@]5(C)[C@H]4[C@H](C)C(=O)CCC(C)C)C3OC(C)=O)OCC(O)C2O)cc1 (some centres not stated)
active

Which result was noted for this compound in the test: CCC(=O)OCc1ccc(OC)cc1
inactive

Which result was noted for this compound in the test: CCCCCCCCCCCC1=NC(C)(C)CN1C(C)C
inactive

Which result was noted for this compound in the test: CC(C)CC1NC(=O)C(CC(C)C)N(CO)C1=O (configuration not stated)
inactive

Which result was noted for this compound in the test: Cc1cc(Nc2c3ccccc3nc3ccccc23)ccc1NS(C)(=O)=O
inactive

Which result was noted for this compound in the test: O=C1SCN(Cc2ccccc2)CN1Cc1ccccc1
inactive

Which result was noted for this compound in the test: COc1cccc(N2CCN(c3ncnc4cc[nH]c34)CC2)c1
inactive

Which result was noted for this compound in the test: COc1ccc(-c2cc(-c3ccc(OC)cc3)c3sc(=O)[nH]c3n2)cc1
inactive

Which result was noted for this compound in the test: O=C(Nc1cccc(-n2ccc3c(NC(=O)c4ccccc4)nccc32)c1)c1ccc(Cl)c(Cl)c1
active

Which result was noted for this compound in the test: COc1cc(C2CC(c3ccccc3)=NN2C=O)ccc1Oc1nc2c(c(=O)n(C)c(=O)n2C)n1C (configuration not stated)
inactive

Which result was noted for this compound in the test: CCOC(=O)c1cc(N)nc2ccccc12
inactive

Which result was noted for this compound in the test: COc1ccc(C2c3cccn3-c3ccccc3N2C(C)=O)cc1 (configuration not stated)
inactive

Which result was noted for this compound in the test: Cn1cnc([N+](=O)[O-])c1S(=O)(=O)Oc1cccc2ccccc12
inactive

Which result was noted for this compound in the test: O=c1oc2ccccc2cc1-c1cc(-c2ccc(-c3cc(-c4cc5ccccc5oc4=O)nc(-c4cc5ccccc5oc4=O)c3)cc2)cc(-c2cc3ccccc3oc2=O)n1
inactive

Which result was noted for this compound in the test: CCN1C(=O)N(CC)C2C1N=C(SC)N2/N=C/C=C/c1ccccc1OC (configuration not stated)
inactive

Which result was noted for this compound in the test: CCc1onc(-c2ccc(OC)cc2)c1-c1ccccc1OCCN(CC)CC
inactive

Which result was noted for this compound in the test: CCN(CC)c1cc(C)c(Cc2c(OC)ccc3ccccc23)cc1C
inactive

Which result was noted for this compound in the test: CCCCOc1nc2ccccc2cc1/C=C/c1cc(/C=C/c2cc3ccccc3nc2OCCCC)n(-c2ccccc2)n1
inactive

Which result was noted for this compound in the test: O=C(Nc1cccc(Cl)c1)Nc1ccccc1Cl
inactive

Which result was noted for this compound in the test: ClCCn1cnc2c(SCc3ccccc3Cl)ncnc21
inactive

Which result was noted for this compound in the test: ClC1=NC(Cl)C(Cl)=N/C1=N\c1ncn[nH]1 (configuration not stated)
inactive

Which result was noted for this compound in the test: CCN(CC)CCNC(=O)n1cc(-c2ccncc2)c(-c2cc(Cl)cc(OC)c2)n1
inactive

Which result was noted for this compound in the test: CC(=O)Nc1c(Br)cc2c(c1Br)Cc1cc(Br)ccc1-2
inactive

Which result was noted for this compound in the test: CCN(CC)c1ccc(/C=N/NC(=O)C[N+](C)(C)C)cc1
inactive

Which result was noted for this compound in the test: CCCCSc1ncnc2c1ncn2C1CCCCO1 (configuration not stated)
inactive

Which result was noted for this compound in the test: CC(C)(C)c1ccc(C(=O)Nc2sc3cc(O)ccc3c2C(N)=O)cc1
inactive

Which result was noted for this compound in the test: NS(=O)(=O)c1ccc(CCn2c(SCC(=O)N/N=C/c3cccnc3)nc3ccccc3c2=O)cc1
inactive

Which result was noted for this compound in the test: CC(C)OC1OC(OC(C)C)C(OC(C)C)OC1OC(C)C (configuration not stated)
inactive

Which result was noted for this compound in the test: C=C(COC(C)=O)[C@H]1CC/C(C)=C/CC/C(C)=C/CC[C@@]2(C)O[C@H]2C1
inactive

Which result was noted for this compound in the test: Cc1c(C(N)=O)sc2ncn(CC(=O)NN=C3CCCCC3)c(=O)c12
inactive

Which result was noted for this compound in the test: CN(C)N1C(=O)c2c(Cl)c(Cl)c(Cl)c(Cl)c2C1=O
inactive

Which result was noted for this compound in the test: CNC(=O)c1c(NC(=O)c2cccc(C(F)(F)F)c2)sc2c1CCC(=O)C2
inactive

Which result was noted for this compound in the test: C=CCN1C(=O)/C(=c2\sc3n(c2=O)C2C(NN=3)N(CC)C(=O)N2CC)c2ccccc21 (configuration not stated)
inactive

Which result was noted for this compound in the test: CN(C)c1nc(-c2cccs2)n2nc(-c3ccco3)cc2n1
inactive

Which result was noted for this compound in the test: Cc1[nH]c2ccccc2c1C1=CC(=O)C=CC1=O
inactive

Which result was noted for this compound in the test: CC(=O)Oc1c(Cl)c(Cl)c(Cl)c(Cl)c1Cl
inactive

Which result was noted for this compound in the test: COc1ccc(/C(C)=N/NC(=O)CSc2nc3ccccc3c(=O)n2CCc2ccc(S(N)(=O)=O)cc2)cc1
active

Which result was noted for this compound in the test: CCCCCCCCCCCCNC(=O)N[C@H](C(=O)N[C@H]1/C=C/OCCNC(=O)/C=C/[C@H](C(C)C)NC1=O)C(C)C
inactive

Which result was noted for this compound in the test: CS(=O)(=O)c1ccc(C(=O)N2N=C(c3ccccc3)CC2c2ccc3c(c2)OCO3)cc1 (configuration not stated)
inactive

Which result was noted for this compound in the test: C[C@H](NC(=O)c1snnc1C1CC1)c1c(F)cccc1Cl
inactive
